We begin with a simple list: items and their reported IC50.
system: human recombinant HDAC6 (Homo sapiens, UniProt Q9UBN7)
experimental protocol: HDAC6 enzyme activity inhibition assay (HDAC Fluorimetric Drug Discovery Kit)
run parameters: same protocol as the HDAC1 enzyme activity test
Respond with the bare value in µM.

Q: What value of IC50 on human recombinant HDAC6 (Homo sapiens, UniProt Q9UBN7) does O=S(=O)(CCN1CCCN(Cc2ccccc2)CC1)N(Cc1ccc(-c2nnc(C(F)F)o2)cc1)c1ccccc1 [Compound 11760] have?
Ans: 0.197

Q: What value of IC50 on human recombinant HDAC6 (Homo sapiens, UniProt Q9UBN7) does CS(=O)(=O)N(Cc1ccc(-c2nnc(C(F)(F)F)o2)cc1F)c1cccc(Cl)c1 [Compound 11190] have?
Ans: 0.129

---

system: human recombinant HDAC6 (Homo sapiens, UniProt Q9UBN7)
experimental protocol: HDAC6 enzyme activity inhibition assay (HDAC Fluorimetric Drug Discovery Kit)
run parameters: same protocol as the HDAC1 enzyme activity test
We begin with a simple list: items and their reported IC50.
Respond with the bare value in nM.

The examples below pair each entry with its known result.
| compound | system | quantity unit | experimental value |
| --- | --- | --- | --- |
| O=S(=O)(c1cccnc1)N(Cc1ccc(-c2nnc(C(F)F)o2)cc1F)c1cccc(F)c1 [Compound 11225] | human recombinant HDAC6 (Homo sapiens, UniProt Q9UBN7) | nM | 24 |
| CS(=O)(=O)N(Cc1ccc(-c2nnc(C(F)(F)F)o2)cc1F)c1cccc(C(F)(F)F)c1 [Compound 11175] | human recombinant HDAC6 (Homo sapiens, UniProt Q9UBN7) | nM | 179 |
| CC(=O)N1CC(N2CCC(S(=O)(=O)N(Cc3ccc(-c4nnc(C(F)F)o4)cn3)c3cccc(C)c3)CC2)C1 [Compound 11838] | human recombinant HDAC6 (Homo sapiens, UniProt Q9UBN7) | nM | 44.6 |
| CC(C)N1CC(N2CCC(S(=O)(=O)N(Cc3ccc(-c4nnc(C(F)F)o4)cn3)c3cccc(Cl)c3)CC2)C1 [Compound 11781] | human recombinant HDAC6 (Homo sapiens, UniProt Q9UBN7) | nM | 18.8 |

Q: What value of IC50 has been reported for the following compound? O=S(=O)(CCN1CCN(CCc2ccncc2)CC1)N(Cc1ccc(-c2nnc(C(F)F)o2)cc1)c1ccccc1 [Compound 11772]
Ans: 48.6

Q: What value of IC50 has been reported for the following compound? O=C(CO)N1CC(N2CCC(S(=O)(=O)N(Cc3ccc(-c4nnc(C(F)F)o4)cc3F)c3ccc(F)c(Cl)c3)CC2)C1 [Compound 11452]
Ans: 8

---

system: human recombinant HDAC6 (Homo sapiens)
Sequence (Q9UBN7 1-1215): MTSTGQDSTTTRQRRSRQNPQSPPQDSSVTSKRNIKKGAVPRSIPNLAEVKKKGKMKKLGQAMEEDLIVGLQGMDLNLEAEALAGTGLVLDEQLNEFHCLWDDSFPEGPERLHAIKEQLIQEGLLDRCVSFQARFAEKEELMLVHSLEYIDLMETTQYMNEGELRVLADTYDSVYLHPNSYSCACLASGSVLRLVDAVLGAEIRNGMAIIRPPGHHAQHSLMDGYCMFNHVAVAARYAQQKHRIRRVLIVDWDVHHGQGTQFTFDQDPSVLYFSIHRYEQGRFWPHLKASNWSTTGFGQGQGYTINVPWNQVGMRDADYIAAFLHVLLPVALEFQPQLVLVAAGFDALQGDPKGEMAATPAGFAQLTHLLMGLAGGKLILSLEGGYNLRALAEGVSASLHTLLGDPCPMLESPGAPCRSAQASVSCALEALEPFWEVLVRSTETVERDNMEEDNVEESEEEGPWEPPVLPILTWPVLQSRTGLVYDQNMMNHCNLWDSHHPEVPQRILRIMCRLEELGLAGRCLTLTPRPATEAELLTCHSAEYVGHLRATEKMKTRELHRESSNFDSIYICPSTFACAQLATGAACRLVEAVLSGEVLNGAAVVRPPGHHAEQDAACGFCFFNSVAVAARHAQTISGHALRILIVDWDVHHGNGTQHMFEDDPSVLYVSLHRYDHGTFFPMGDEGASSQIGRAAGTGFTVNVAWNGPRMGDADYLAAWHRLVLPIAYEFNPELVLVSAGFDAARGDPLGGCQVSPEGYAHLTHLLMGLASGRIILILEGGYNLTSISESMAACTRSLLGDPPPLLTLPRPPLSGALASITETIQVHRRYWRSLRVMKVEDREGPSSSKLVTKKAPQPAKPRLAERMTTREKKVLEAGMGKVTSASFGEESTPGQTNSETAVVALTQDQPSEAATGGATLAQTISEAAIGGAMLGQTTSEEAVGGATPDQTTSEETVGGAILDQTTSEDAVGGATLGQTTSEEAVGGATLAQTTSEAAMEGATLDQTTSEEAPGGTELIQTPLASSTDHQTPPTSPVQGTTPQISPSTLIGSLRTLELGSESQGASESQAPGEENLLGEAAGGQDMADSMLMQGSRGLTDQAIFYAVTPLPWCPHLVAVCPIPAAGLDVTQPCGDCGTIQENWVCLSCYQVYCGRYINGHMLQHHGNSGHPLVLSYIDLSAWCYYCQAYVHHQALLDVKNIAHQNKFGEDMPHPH
experimental protocol: HDAC6 enzyme activity inhibition assay (HDAC Fluorimetric Drug Discovery Kit)
run parameters: same protocol as the HDAC1 enzyme activity test
Kindly apply the following: Yes if IC50 is less than 50 nM, No in every other case.

Q: API: query returns whether the molecule falls strictly under 50 nM in IC50. Query: CS(=O)(=O)N(Cc1ccc(-c2nnc(C(F)F)o2)cc1F)[C@@H]1CCc2ccccc21
Ans: No

Q: API: query returns whether the molecule falls strictly under 50 nM in IC50. Query: CS(=O)(=O)N(Cc1ccc(-c2nnc(C(F)(F)F)o2)cc1)c1ccccc1
Ans: Yes

Q: API: query returns whether the molecule falls strictly under 50 nM in IC50. Query: O=S(=O)(C1CCOCC1)N(Cc1ccc(-c2nnc(C(F)(F)F)o2)cn1)c1ccccc1
Ans: No

Q: API: query returns whether the molecule falls strictly under 50 nM in IC50. Query: C[C@@H]1CN(CCS(=O)(=O)N(Cc2ccc(-c3nnc(C(F)F)o3)cc2)c2ccccc2)C[C@H](C)N1
Ans: No

Q: API: query returns whether the molecule falls strictly under 50 nM in IC50. Query: O=S(=O)(CCN1CCN(CCc2ccccc2)CC1)N(Cc1ccc(-c2nnc(C(F)F)o2)cc1)c1ccccc1
Ans: No

Q: API: query returns whether the molecule falls strictly under 50 nM in IC50. Query: COc1ccccc1N(Cc1ccc(-c2nnc(C(F)(F)F)o2)cc1F)S(C)(=O)=O
Ans: No

Q: API: query returns whether the molecule falls strictly under 50 nM in IC50. Query: CC(=O)c1cccc(N(Cc2ccc(-c3nnc(C(F)F)o3)cc2F)S(C)(=O)=O)c1
Ans: Yes

Q: API: query returns whether the molecule falls strictly under 50 nM in IC50. Query: COc1cccc(N(Cc2ccc(-c3nnc(C(F)(F)F)o3)cc2F)S(C)(=O)=O)c1
Ans: Yes
